The listing below reports MIC for molecules tested on Propionibacterium acnes.
Property label: MIC (µg/mL)

I = Cc1ccc(C(C)(C)CC(C)O)cc1 (racemic) [Formula 3, (R,S)-4-methyl-4-p-tolyl-2-pentanol]
II = CC(O)CC(C)(C)c1ccccc1 (racemic) [Formula 2, (R,S)-4-methyl-4-phenyl-2-pentanol]
III = CC(O)CC(C)(C)c1ccc(C(C)C)cc1 (racemic) [Formula 4, (R,S)-4-methyl-4-p-cumenyl-2-pentanol]
Order by MIC, ascending. Enter labels, ranked according to the request.
III, I, II
(III: 138 µg/mL, I: 550 µg/mL, II: 1100 µg/mL)

###

The listing below reports MIC for compounds tested on Brevibacterium epidermidis.
Property label: MIC (µg/mL)

1 = CCCCc1ccc(C(C)(C)CC(C)O)cc1 (racemic) [Formula 5]
2 = CC(O)CC(C)(C)c1ccc(C(C)C)cc1 (racemic) [Formula 4, (R,S)-4-methyl-4-p-cumenyl-2-pentanol]
3 = CC(O)CC(C)(C)c1ccccc1 (racemic) [Formula 2, (R,S)-4-methyl-4-phenyl-2-pentanol]
Put the entries in order of MIC, starting with the largest number. Enter labels, ranked according to the request.
3, 1, 2
